Numbers sourced from patent US20240279318A1.

- EXPERIMENTAL_TARGET: T1, AFP158/HLA-A*02:01 complex (human)
- T1 construct: biotinylated on the BSP by BirA for ELISA and panning; also called biotinylated AFP158/HLA-A*02:01 complex; Bio-AFP158
- TEST_NAME: SPR, crude scFv captured;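 also: Peptide–MHC complex flowed at several concentrations over sensorchip-captured scFv, Kd derived from on- and off-rates obtained from the association and dissociation curves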
MEASUREMENT_NAME: pKd
// pKd here means minus log10 of the molar concentration (mol/L)

Quick one: pKd of AS170036 VL1VH1 HS57N (scFv) scFv: QSALTQPRSVSGSPGQSVTISCAGTSSDVGSENYVSWYQQHPGKAPKLMIYQVNKRASGVPDRFSGSKSGNTASLTISGLQAEDEADYYCASYRSSDHNIVFGGGTKLTVLGGGGSGGGGSGGGGSEVQLVESGGGLVQPGGSLRLSCAASGFTFSSYAMSWVRQAPGKGLEWVSTINSGTGNPYYADSVKGRFTISRDNSKNTLYLQMNSLRAEDTAVYYCAKNFFDGSWFLGPPAMDYWGQGTLVTVSSHHHHHH ? 6.77

Quick one: pKd of AS170036 VL1VH1 HG108I (scFv) scFv: QSALTQPRSVSGSPGQSVTISCAGTSSDVGSENYVSWYQQHPGKAPKLMIYQVNKRASGVPDRFSGSKSGNTASLTISGLQAEDEADYYCASYRSSDHNIVFGGGTKLTVLGGGGSGGGGSGGGGSEVQLVESGGGLVQPGGSLRLSCAASGFTFSSYAMSWVRQAPGKGLEWVSTINSGTGSPYYADSVKGRFTISRDNSKNTLYLQMNSLRAEDTAVYYCAKNFFDGSWFLIPPAMDYWGQGTLVTVSSHHHHHH ? 6.00

Quick one: pKd of AS170036 VL1VH1 HG56W (scFv) scFv: QSALTQPRSVSGSPGQSVTISCAGTSSDVGSENYVSWYQQHPGKAPKLMIYQVNKRASGVPDRFSGSKSGNTASLTISGLQAEDEADYYCASYRSSDHNIVFGGGTKLTVLGGGGSGGGGSGGGGSEVQLVESGGGLVQPGGSLRLSCAASGFTFSSYAMSWVRQAPGKGLEWVSTINSGTWSPYYADSVKGRFTISRDNSKNTLYLQMNSLRAEDTAVYYCAKNFFDGSWFLGPPAMDYWGQGTLVTVSSHHHHHH ? 6.89
